# Study target: Angiotensin-converting enzyme (Rattus norvegicus)
# Sequence (P47820 whole entry): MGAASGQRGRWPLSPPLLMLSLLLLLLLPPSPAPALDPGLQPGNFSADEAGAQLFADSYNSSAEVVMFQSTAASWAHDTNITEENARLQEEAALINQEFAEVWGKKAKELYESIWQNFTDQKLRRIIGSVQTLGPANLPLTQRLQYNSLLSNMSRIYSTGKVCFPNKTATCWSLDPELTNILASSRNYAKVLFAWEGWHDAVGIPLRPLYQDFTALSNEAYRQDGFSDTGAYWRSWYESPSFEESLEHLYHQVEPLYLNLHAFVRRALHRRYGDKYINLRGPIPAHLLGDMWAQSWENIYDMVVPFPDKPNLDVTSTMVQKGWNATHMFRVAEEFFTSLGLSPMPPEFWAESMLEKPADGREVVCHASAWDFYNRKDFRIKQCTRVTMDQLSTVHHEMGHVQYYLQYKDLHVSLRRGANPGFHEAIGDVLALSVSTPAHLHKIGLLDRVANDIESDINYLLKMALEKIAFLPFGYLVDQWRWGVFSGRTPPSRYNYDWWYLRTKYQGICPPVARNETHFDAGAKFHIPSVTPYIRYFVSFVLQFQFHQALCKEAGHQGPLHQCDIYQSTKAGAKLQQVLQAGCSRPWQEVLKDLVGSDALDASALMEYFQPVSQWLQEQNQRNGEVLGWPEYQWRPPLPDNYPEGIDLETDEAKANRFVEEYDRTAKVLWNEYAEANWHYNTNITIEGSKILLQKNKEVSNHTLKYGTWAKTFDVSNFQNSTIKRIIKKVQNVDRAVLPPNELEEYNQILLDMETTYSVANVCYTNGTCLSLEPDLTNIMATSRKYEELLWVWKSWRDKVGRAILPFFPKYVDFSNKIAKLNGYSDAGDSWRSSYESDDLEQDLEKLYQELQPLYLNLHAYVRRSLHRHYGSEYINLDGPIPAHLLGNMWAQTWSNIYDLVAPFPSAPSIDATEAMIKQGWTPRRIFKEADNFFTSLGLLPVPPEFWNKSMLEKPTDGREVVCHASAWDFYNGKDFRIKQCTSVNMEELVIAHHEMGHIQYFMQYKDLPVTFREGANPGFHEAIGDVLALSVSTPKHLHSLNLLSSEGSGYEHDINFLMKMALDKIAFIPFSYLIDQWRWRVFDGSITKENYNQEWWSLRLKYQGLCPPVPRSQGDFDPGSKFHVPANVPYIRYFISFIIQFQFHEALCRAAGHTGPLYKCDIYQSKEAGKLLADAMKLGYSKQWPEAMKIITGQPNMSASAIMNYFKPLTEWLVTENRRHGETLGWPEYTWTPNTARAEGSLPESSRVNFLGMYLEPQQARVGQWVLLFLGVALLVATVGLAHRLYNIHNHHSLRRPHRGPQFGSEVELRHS
Decide using IC50 alone. Strictly below 0.01 µM: fulfilled. Equal to or above 0.01 µM: not fulfilled.

Answered cases to consult:
Structure as smiles | Study target | Answer label
O=C(N[C@H]1CCC[C@H]2SC[C@@H](C(=O)O)N2C1=O)[C@@H](S)Cc1ccccc1 | Angiotensin-converting enzyme (Rattus norvegicus) | fulfilled
O=C(N[C@H]1CCC[C@H]2SC[C@@H](C(=O)O)N2C1=O)[C@@H](CS)Cc1ccccc1 | Angiotensin-converting enzyme (Rattus norvegicus) | fulfilled
O=C(N[C@H]1CCC[C@@H]2SCC[C@@H](C(=O)O)N2C1=O)[C@@H](S)Cc1ccccc1 | Angiotensin-converting enzyme (Rattus norvegicus) | not fulfilled

Query: Hello, I'm reviewing records and need to know if IC50 of `O=C(O)[C@H]1CCS[C@@H]2CCC[C@H](NC(=O)[C@@H](S)Cc3ccccc3)C(=O)N12` is below 0.01 µM. Could you check?
Response: not fulfilled

Query: Hello, I'm reviewing records and need to know if IC50 of `O=C(N[C@H]1CCC[C@@H]2SC[C@@H](C(=O)O)N2C1=O)[C@@H](S)Cc1ccccc1` is below 0.01 µM. Could you check?
Response: not fulfilled
